Readings of EC50 for the listed compounds
- study_target: hSTING (Homo sapiens, UniProt Q86WV6, G230A/H232R/R293Q/R71H)
- Sequence (Q86WV6 whole entry R71H/G230A/H232R/R293Q): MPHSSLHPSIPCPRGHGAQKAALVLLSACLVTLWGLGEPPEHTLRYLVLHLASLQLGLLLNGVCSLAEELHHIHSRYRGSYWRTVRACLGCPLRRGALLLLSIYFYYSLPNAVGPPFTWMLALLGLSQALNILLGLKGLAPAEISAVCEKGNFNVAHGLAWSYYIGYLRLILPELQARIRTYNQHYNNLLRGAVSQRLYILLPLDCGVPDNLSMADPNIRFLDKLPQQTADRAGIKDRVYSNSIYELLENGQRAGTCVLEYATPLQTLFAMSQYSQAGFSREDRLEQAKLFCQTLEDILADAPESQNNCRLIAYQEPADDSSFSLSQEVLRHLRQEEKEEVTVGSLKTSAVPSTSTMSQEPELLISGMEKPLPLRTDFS
- test: STING reporter assay (luciferase reporter) in THP1-Dual KO-IFNAR2 cells activated with 2′3′cGAMP
- experimental_context: 15 μM 2′3′cGAMP, 24 h, luciferase reporter activity

# count of solved cases: 2
[[record]]
compound = "CCCCC1CCN(C(=O)Nc2c[nH]c3ncc(F)cc23)CC1"
study_target = "hSTING (Homo sapiens, UniProt Q86WV6, G230A/H232R/R293Q/R71H)"
assay_result = "5000 to 100000 nM"

[[record]]
compound = "C#Cc1cnc2[nH]cc(NC(=O)Nc3ccc(C(F)(F)F)cc3)c2c1"
study_target = "hSTING (Homo sapiens, UniProt Q86WV6, G230A/H232R/R293Q/R71H)"
assay_result = "200 to 1000 nM"


Exercise: Given the entry O=C(Nc1ccc(C(F)(F)F)cc1)Nc1c[nH]c2ncc(-c3ccc(OCC4CC4)nc3)cc12 , report its measured EC50.
Solution: 200 to 1000 nM

Exercise: Given the entry CC(C)n1cc(-c2cnc3[nH]cc(NC(=O)Nc4ccc(C(F)(F)F)cc4)c3c2)cn1 , report its measured EC50.
Solution: 200 to 1000 nM

Exercise: Given the entry CCCCc1ccc(NC(=O)Nc2c[nH]c3ncc(F)cc23)cc1 , report its measured EC50.
Solution: 40 to 200 nM

Exercise: Given the entry O=C(Nc1ccc(C(F)(F)F)cc1)Nc1c[nH]c2ncc(-c3cccnc3)cc12 , report its measured EC50.
Solution: 1000 to 5000 nM

Exercise: Given the entry O=C(Nc1ccc(C(F)(F)F)cn1)Nc1c[nH]c2ncccc12 , report its measured EC50.
Solution: 200 to 1000 nM

Exercise: Given the entry CCCCc1ccc(NC(=O)Nc2c[nH]c3ncc(F)cc23)nc1 , report its measured EC50.
Solution: 200 to 1000 nM

----------
- study_target: hSTING (Homo sapiens, UniProt Q86WV6, G230A/H232R/R293Q/R71H)
- test: STING reporter assay (luciferase reporter) in THP1-Dual KO-IFNAR2 cells activated with 2′3′cGAMP
- experimental_context: 15 μM 2′3′cGAMP, 24 h, luciferase reporter activity
pEC50: −log10 of the molar value.
Readings of pEC50 for the listed molecules

# count of solved cases: 3
[[record]]
molecule = "O=C(Nc1ccc(C(F)(F)F)cc1)Nc1c[nH]c2c(F)cncc12"
endpoint_name = "pEC50"
assay_result = "6.00 to 6.70"

[[record]]
molecule = "CC(C)(O)c1ccc(-c2cnc3[nH]cc(NC(=O)Nc4ccc(C(F)(F)F)cc4)c3c2)cc1"
endpoint_name = "pEC50"
assay_result = "5.30 to 6.00"

[[record]]
molecule = "Cc1ccc2[nH]cc(NC(=O)Nc3ccc(C(F)(F)F)cc3)c2n1"
endpoint_name = "pEC50"
assay_result = "6.00 to 6.70"


Exercise: Given the entry O=C(Nc1ccc(C2CCCCC2)nc1)Nc1c[nH]c2ccncc12 , report its measured pEC50.
Solution: 5.30 to 6.00

Exercise: Given the entry O=C(Nc1c[nH]c2ncc(F)cc12)NC1CCC2(CCCCC2)CC1 , report its measured pEC50.
Solution: 6.00 to 6.70

Exercise: Given the entry C#Cc1ccc(NC(=O)Nc2c[nH]c3ncc(F)cc23)cc1 , report its measured pEC50.
Solution: 6.70 to 7.40

Exercise: Given the entry C#Cc1ccc2[nH]cc(NC(=O)Nc3ccc(C(F)(F)F)cc3)c2n1 , report its measured pEC50.
Solution: 4.00 to 5.30

Exercise: Given the entry CCCCC1CCC(NC(=O)Nc2c[nH]c3ncccc23)C1 (stereo not drawn) , report its measured pEC50.
Solution: 5.30 to 6.00

Exercise: Given the entry O=C(Nc1ncc(-c2ccccc2)s1)Nc1c[nH]c2ncc(F)cc12 , report its measured pEC50.
Solution: 6.00 to 6.70

Exercise: Given the entry COc1ccc(F)c(F)c1-c1cnc2[nH]cc(NC(=O)Nc3ccc(C(F)(F)F)cc3)c2c1 , report its measured pEC50.
Solution: 4.00 to 5.30
